Reference source: PubChem BioAssay (NCI)

Test system: MCF7 breast
Test Summary: NCI tumour cell line growth inhibition, 48 h
Readout Kind: TGI

What measured TGI goes with COc1ccc(-c2oc(=O)ccc2-c2cc(OC)c(OC)c(OC)c2)cc1O ?
> 53.6 µM

What measured TGI goes with COC(=O)c1ccccc1C1CN=NC12Cc1ccccc1C2=O (stereo not given) ?
> 100 µM

What measured TGI goes with COc1cccc2c1CCc1c(-c3ccc(F)cc3)cc(-c3ccc4ccccc4n3)nc1-2 ?
> 100 µM

What measured TGI goes with C1CSCCSCCSCCSC1 ?
> 100 µM

What measured TGI goes with C/C(=N\n1c(Cc2ccccc2)n[nH]c1=O)c1ccccc1 ?
> 100 µM
